Assay: S. cerevisiae growth modulation with rapamycin, primary screen, strain BY4716, OD600, 96 h (AID 1091); also: test concentration not given here
Details: called active from +8 up or from −8 down
The source made the active and inactive calls.
Entry note: the call must match one of label 1 = active, label 0 = inactive

Below, 6 molecules whose answers are already recorded.
1) COC(=O)[C@H](Cc1ccc(O)cc1)N1CC2=CCCC=C[C@@H]2[C@H]1[C@H](O)Cc1ccccc1 :: label 0
2) C=CCOC(=O)[C@@H]1[C@H]2C(=O)O[C@H](c3ccccc3)[C@H](c3ccccc3)N2[C@H](c2ccc(OCCOC(=O)[C@H]3C[C@H]4C(=O)NCC(=O)N4[C@H]3c3ccc(O)cc3)cc2)[C@@]12C(=O)Nc1ccc(I)cc12 :: label 0
3) CN(C)C(=O)[C@]1(Cc2ccccc2CN=[N+]=[N-])N=C(c2ccc(OCCCO)cc2)O[C@@H]1c1ccccc1N=[N+]=[N-] :: label 1
4) COCCOC(=O)N1C(=O)[C@@]2(c3cc(C#CC4=CCCCC4)ccc31)[C@H](c1ccccc1OCCO)N1[C@H](c3ccccc3)[C@H](c3ccccc3)OC(=O)[C@H]1[C@@H]2C(N)=O :: label 0
5) COc1ccc(CCNC(=O)[C@@]2(C)c3ccccc3C(=O)N(Cc3cc(C(F)(F)F)cc(C(F)(F)F)c3)[C@H]2c2ccc(CO)cc2)cc1 :: label 0
6) COc1ccc(C(O)C2C=CC3C(=O)N(C)C(=O)C3N2Nc2ccc([N+](=O)[O-])cc2[N+](=O)[O-])cc1OCc1ccccc1 (centres undefined) :: label 0

## Input Short answer needed: outcome of this test for CC(=O)n1cc(C(O)C2C=CC3C(=O)N(c4ccccc4)C(=O)C3N2Nc2ccccc2F)c2ccccc21 (centres undefined) ?
## Output label 0

## Input Short answer needed: outcome of this test for [N-]=[N+]=NCc1ccccc1[C@@H]1OC(c2ccc(OCCCO)cc2)=N[C@]1(Cc1ccccc1)C(=O)NCc1ccccc1 ?
## Output label 1

## Input Short answer needed: outcome of this test for COC(=O)[C@@]1(Cc2ccc(F)cc2)[C@H]2c3cc(C(=O)N(C)C)n(CCO)c3C[C@H]2CN1C(=O)c1ccccc1 ?
## Output label 0

## Input Short answer needed: outcome of this test for C=C(/C(=C/C[C@H](OC(=O)c1ccncc1)c1ccccc1OCCO)c1cc(C(=O)OC)ccc1OC)C(C)C ?
## Output label 0

## Input Short answer needed: outcome of this test for CC(C)C(=C=CC[C@@H](O)c1cccc(OCCO)c1)CCO ?
## Output label 0

## Input Short answer needed: outcome of this test for COCCOC(=O)N1C(=O)[C@@]2(c3cc(C#CC4(O)CCCCCC4)ccc31)[C@H](c1ccccc1OCCO)N1[C@H](c3ccccc3)[C@H](c3ccccc3)OC(=O)[C@H]1[C@@H]2C(=O)N1CCCCCCC1 ?
## Output label 0

## Input Short answer needed: outcome of this test for Cc1ccc(S[C@]2(C(=O)NCCCN(C)C)CC(=O)N(Cc3ccccc3Cl)[C@@H]2c2ccc(CO)cc2I)cc1 ?
## Output label 0

## Input Short answer needed: outcome of this test for COc1ccc([Si](C)(C)[C@H]2[C@H](CCn3cc([C@H](O)c4ccccc4)nn3)O[C@@]3(C(=O)N(c4ccccc4)c4ccccc43)[C@@H]2C)cc1 ?
## Output label 0

* * *

Assay: S. cerevisiae RM11-1a growth modifiers, primary screen, strain RM11-1a, OD600, basal, 24 h (AID 1177);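 also: cultures grown under basal conditions with no added stressor; test concentration not given here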
Conditions: OD600, 24 h, higher = more signal, called active from +8 up or from −8 down
READOUT TYPE: z-score
Respond using a number only.

Past entries and their recorded results:
1. [N-]=[N+]=Nc1ccccc1[C@@H]1OC(c2ccc(OCCCO)cc2)=N[C@]1(Cc1ccccc1)C(N)=O :: 1.19
2. C=CCC(OC(C)=O)[C@@H]1[C@@H](N(Cc2ccc(-c3ccccc3)cc2)C(=O)c2ccc(-c3ccccc3)cc2)c2cc(OCCCO)ccc2N1C(=O)c1ccc2ccccc2n1 (some centres undefined) :: -0.354
3. COc1cc2c(cc1O)C(c1ccc(CN3CCCC3)cc1)N(Cc1ccc([N+](=O)[O-])o1)CC2 (centres undefined) :: 0.0464
4. C=CC[C@@]1(C(=O)N(C)C)N=C(c2ccc(OCCCO)cc2)O[C@@H]1c1ccccc1 :: -0.422
5. COCCOC(=O)N1C(=O)[C@@]2(c3cc(C#CCC(C(=O)OC)C(=O)OC)ccc31)[C@H](C(N)=O)[C@H]1C(=O)O[C@H](c3ccccc3)[C@H](c3ccccc3)N1[C@@H]2c1ccc(OCCO)cc1 :: 3.39

## Input # return recorded z-score for input COCCCNC(=O)[C@@H]1c2ccccc2C(=O)N(C2CCCCC2)[C@H]1c1ccc(CO)cc1
## Output -0.611

## Input # return recorded z-score for input C=C(COC)/C(=C/C[C@H](OC(=O)c1ccncc1)c1ccc(OCCO)cc1)c1cc(C(=O)OC)ccc1OC
## Output -0.402

## Input # return recorded z-score for input CCCC[C@@H](O)C1=C(COC)Cn2c(=O)n(-c3ccccc3)c(=O)n2[C@H]1CO
## Output -2.03

## Input # return recorded z-score for input CCCCN1CC=CC23O[C@@H]4C=CCOC(=O)[C@@H]4[C@H]2C(=O)N(CCO)[C@@H]3C1=O (some centres undefined)
## Output -0.322

* * *

Target: Follistatin (Homo sapiens) (UniProt P19883)
Sequence (P19883 whole entry, looked up): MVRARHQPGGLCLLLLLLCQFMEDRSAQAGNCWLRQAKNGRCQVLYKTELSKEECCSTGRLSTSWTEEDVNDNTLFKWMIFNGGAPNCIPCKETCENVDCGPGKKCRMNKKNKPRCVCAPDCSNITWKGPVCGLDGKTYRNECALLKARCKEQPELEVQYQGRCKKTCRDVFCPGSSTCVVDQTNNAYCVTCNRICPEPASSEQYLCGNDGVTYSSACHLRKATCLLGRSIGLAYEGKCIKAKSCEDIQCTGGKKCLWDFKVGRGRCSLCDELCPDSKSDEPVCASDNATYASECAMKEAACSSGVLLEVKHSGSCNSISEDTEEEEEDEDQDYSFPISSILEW
Test: follistatin binders on small-molecule microarrays, primary screen, biochemical, small-molecule microarray, 635/667 nm fluorescence (AID 1132)
Details: FST binding, 635 nm fluorescence, higher = more signal
READOUT TYPE: composite z-score
Respond using a number only.

1. COCC1=C([C@H](O)CCc2ccccc2)[C@H](CO)n2c(=O)n(-c3ccccc3)c(=O)n2C1 :: 0.0942
2. Cc1ccc(S[C@]2(C(=O)NC3CC3)CC(=O)N(Cc3cc(C(F)(F)F)cc(C(F)(F)F)c3)[C@@H]2c2ccc(CO)cc2I)cc1 :: 1.09
3. C=CC[C@]1(C(=O)NCCCOC)N=C(c2ccc(OCCCO)cc2)O[C@H]1c1ccccc1 :: 1.29

## Input # return recorded composite z-score for input O=C1C2C=CC(C(O)C(c3ccccc3)c3ccccc3)N(Nc3ccccc3)C2C(=O)N1c1ccccc1 (centres undefined)
## Output 1.29

* * *

Assay: small-molecule microarray binders of probe aCHRDL2, primary screen, biochemical, biotinylated probe, 635/667 nm fluorescence (AID 1100)
Details: higher = more signal
Quick reference for composite z-score among some molecules
Respond using a number only.

Past entries and their recorded results:
1. N#Cc1ccc(C(O)C2C=CC3C(=O)NC(=O)C3N2Nc2ccccn2)cc1 (stereo not drawn) :: 0.425
2. CC(=O)n1cc(C(O)C2C=CC3C(=O)N(c4ccccc4)C(=O)C3N2Nc2ccccc2F)c2ccccc21 (stereo not drawn) :: 0.483
3. CCOC(=O)C1=C[C@@H](C(C)(C)C)N(S(=O)(=O)c2ccc(C)cc2)[C@H]1c1ccccc1Cl :: 1.11
4. N#Cc1ccc(C(O)C2C=CC3C(=O)N(c4ccccc4)C(=O)C3N2Nc2ccc([N+](=O)[O-])cc2)cc1 (stereo not drawn) :: 1.16
5. CN1C(=O)[C@]2(CCS(=O)(=O)c3ccccc3)N=C(c3ccc(OCCCO)cc3)O[C@@H]2c2ccccc21 :: 0.89

## Input # return recorded composite z-score for input C=C(COC)/C(=C/C[C@H](OC(=O)c1ccncc1)c1cccc(OCCO)c1)c1cnc2ccccc2c1
## Output 0.293

* * *

Test: small-molecule microarray binders of probe aWnt5a, primary screen, biochemical, biotinylated probe, 635/667 nm fluorescence (AID 1113);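 also: score merges 667 nm fluorescence intensity with signal-to-noise per printed feature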
Details: higher = more signal
Quick reference for composite z-score among some compounds
Respond using a number only.

1) CCCCCCCCCCC(O)C1C=CC2C(=O)N(C)C(=O)C2N1N1CCCCC1 (centres undefined) :: -0.196

## Input # return recorded composite z-score for input CC(C)C[C@@H]1NC(=O)[C@@]23C(=O)N[C@@H](Cc4ccccc4)C2[C@H](C)[C@@]2(C)O[C@H]2C3/C=C/C/C=C\CNC(=O)[C@@H](CC(C)C)NC1=O (some centres undefined)
## Output -0.101

## Input # return recorded composite z-score for input Cc1ccc(S(=O)(=O)N2[C@@H](c3ccccc3)C(C(=O)O)=CC[C@H]2c2ccc(C#N)cc2)cc1
## Output 0.0267

* * *

Quick reference for composite z-score among some molecules
Tested on: wheat germ agglutinin (Triticum aestivum), Alexa647-labelled
Test: wheat germ agglutinin binders on compound microarrays, profiling panel, artefact control for SMM control-protein annotation, biochemical, small-molecule microarray, 635/667 nm fluorescence (AID 1140);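 also: score merges 667 nm feature emission with signal to noise over triplicate slides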
Conditions: WGA-A647 binding, 635 nm fluorescence, higher = more signal

## Input # return recorded composite z-score for input COCCOC(=O)N1C(=O)[C@@]2(c3ccccc31)[C@H](C(N)=O)[C@H]1C(=O)O[C@H](c3ccccc3)[C@H](c3ccccc3)N1[C@@H]2c1ccc(OCCO)cc1
## Output 0.982

## Input # return recorded composite z-score for input CCC(CC)C(O)C1C=CC2C(=O)N(C)C(=O)C2N1N1CCCCC1 (stereo not drawn)
## Output 1.12
